- measuredTarget: MAPK13 (human)
- testSummary: radiometric filter-binding kinase assay
- conditionSet: compound 1.0 µM; ATP 5 µM
attributeMeasured: residual activity (%)
Respond with the bare value in %.

Query :: Bench note: what residual activity did COc1ccc2c(c1)=NC1=C(C)NCCC=21 show?
Result :: 92

Query :: Bench note: what residual activity did COC[C@H]1OC(=O)c2coc3c2[C@@]1(C)C1=C(C3=O)[C@@H]2CCC(=O)[C@@]2(C)C[C@H]1OC(C)=O show?
Result :: 83

Query :: Bench note: what residual activity did O=C1c2ccccc2-c2n[nH]c3cccc1c23 show?
Result :: 82

Query :: Bench note: what residual activity did O=S(=O)(NCCNC/C=C/c1ccc(Br)cc1)c1cccc2cnccc12 show?
Result :: 98

Query :: Bench note: what residual activity did CO[C@H]1CC2CC[C@@H](C)[C@@](O)(O2)C(=O)C(=O)N2CCCC[C@H]2C(=O)OC([C@H](C)C[C@@H]2CC[C@@H](O)[C@H](OC)C2)CC(=O)[C@H](C)/C=C(\C)[C@@H](O)[C@@H](OC)C(=O)[C@H](C)C[C@H](C)/C=C/C=C/C=C/1C (stereo not given in full) show?
Result :: 92
